# testTarget: b-Raf (V600E) (Homo sapiens (Human), UniProt P15056, V600E)
# Sequence (P15056 whole entry V600E): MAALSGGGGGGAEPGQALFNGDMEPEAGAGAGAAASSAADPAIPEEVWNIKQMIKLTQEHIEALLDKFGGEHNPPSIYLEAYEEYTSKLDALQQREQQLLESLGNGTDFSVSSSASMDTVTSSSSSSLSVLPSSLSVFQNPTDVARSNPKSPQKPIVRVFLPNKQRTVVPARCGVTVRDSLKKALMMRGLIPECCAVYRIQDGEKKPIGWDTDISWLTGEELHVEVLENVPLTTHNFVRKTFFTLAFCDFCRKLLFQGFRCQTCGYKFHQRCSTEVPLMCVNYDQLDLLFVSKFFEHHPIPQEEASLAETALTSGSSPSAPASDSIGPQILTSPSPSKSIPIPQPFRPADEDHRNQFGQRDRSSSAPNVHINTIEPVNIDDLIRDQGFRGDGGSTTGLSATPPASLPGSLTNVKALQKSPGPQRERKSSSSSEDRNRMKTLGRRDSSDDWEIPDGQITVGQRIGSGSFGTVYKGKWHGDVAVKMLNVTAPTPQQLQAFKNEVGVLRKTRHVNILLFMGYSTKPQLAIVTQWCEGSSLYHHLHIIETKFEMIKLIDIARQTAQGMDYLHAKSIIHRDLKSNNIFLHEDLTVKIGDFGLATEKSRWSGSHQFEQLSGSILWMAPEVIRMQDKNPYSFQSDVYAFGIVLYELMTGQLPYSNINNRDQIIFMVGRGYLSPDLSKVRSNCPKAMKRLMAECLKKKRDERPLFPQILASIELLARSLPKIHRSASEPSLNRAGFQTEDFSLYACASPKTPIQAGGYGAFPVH
# reportedConditions: read-out: b-Raf IC-50; AlphaScreen, 60 min pre-incubation, reaction 3 hours at room temperature
Sorting guide: entries reporting IC50 beneath 2 nM go in the true pile, the rest go in the false pile.

Example results:
(Q) Would you kindly verify if IC50 of Cc1ccc(NC(=O)c2cnnc(C(F)(F)F)c2)cc1-c1cc(N2CCOCC2)nc(NCCO)c1F is strictly less than 2 nM?
(A) false

(Q) Confirm or reject: IC50 of CCOc1cc(-c2cc(NC(=O)c3ccnc(C(F)(F)F)c3)ccc2C)cc(N2CCOCC2)n1 lies strictly below 2 nM
(A) true

(Q) Problem: For the compound Cc1c(-c2nc3c(c(N4CCOCC4)n2)CS(=O)(=O)C3)cc(NC(=O)c2cccc(C(F)(F)F)c2)c[n+]1[O-] , is IC50 under 2 nM?
(A) false

(Q) Say whether its IC50 is strictly beneath 2 nM. Entry: Cc1ccc(NC(=O)c2cncc(C(F)(F)F)c2)cc1-c1cc(N2CCOCC2)n(C)c(=O)c1
(A) true

(Q) I wonder whether Cc1ccc(NC(=O)c2ccnc(C(C)(C)C#N)c2)cc1-c1cc(OCCO)nc(N2CCOCC2)c1 has IC50 below 2 nM. Can you tell?
(A) true

(Q) In plain terms, does Cc1ccc(NC(=O)c2ccnc(C(C)(C)C#N)c2)cc1-c1cc(OC2CCOCC2)nc(N2CCOCC2)c1 come in under 2 nM for IC50?
(A) true

(Q) Field: below-cutoff. Rule: recorded IC50 strictly less than 2 nM. Subject: Cc1ccc(C(=O)Nc2cccc(C(F)(F)F)c2)cc1-c1cc(N2CCOCC2)c2nccn2n1
(A) true

(Q) Does Cc1ncc(NC(=O)c2cccc(C(F)F)c2)cc1-c1cc(N2CCOCC2)c2nccn2c1 have IC50 strictly under 2 nM?
(A) false

(Q) Given Cc1ccc(NC(=O)c2cc(C(C)(C)O)ccn2)cc1-c1cc(N2CCOCC2)c(=O)n(C)c1 , is recorded IC50 strictly lower than 2 nM?
(A) false

(Q) Report whether reported IC50 is lower than 2 nM (strictly) for Cc1ncc(NC(=O)c2cccc(C(F)(F)F)c2)cc1-c1cnc(OC[C@@H](C)O)c(N2CCOCC2)c1
(A) false

More entries:
(Q) Please check: IC50 for Cc1ncc(NC(=O)c2ccnc(C(F)(F)F)c2)cc1-c1cc(C2COCCO2)nc(N2CCOCC2)c1 (stereo not drawn) , strictly under 2 nM or not?
(A) false

(Q) Determine if CCC(F)(F)c1cc(C(=O)Nc2cnc(C)c(-c3cnc(OC(F)F)c(N4CCOCC4)c3)c2)ccn1 shows IC50 strictly lower than 2 nM.
(A) false

(Q) Please check: IC50 for Cc1ncc(NC(=O)c2ccnc(C(F)(F)F)c2)cc1-c1cc(N2CCOCC2)nc(N2CCOCC2)c1 , strictly under 2 nM or not?
(A) true

(Q) I wonder whether Cc1ccc(NC(=O)c2ccnc(C(C)(C)O)c2)cc1-c1cnc(OC(C)C)c(N2CCOCC2)c1 has IC50 below 2 nM. Can you tell?
(A) true

(Q) Just wondering, is IC50 of Cc1ccc(NC(=O)c2ccnc(S(C)(=O)=O)c2)cc1-c1cc(N2CCOCC2)nc(N2CCOCC2)c1 below 2 nM?
(A) true

Values from patent US9694016B2
